target: EGFR (form used in the assay not stated) (human, UniProt P00533 25-645, limits assumed); test: ELISA, NEM conjugate, 100 nM
This listing pairs binders with measured binding relative to P54AR4-83v2 parent.
reported metric: binding relative to P54AR4-83v2 parent (ratio)

{"columns": ["binder", "value units", "endpoint value"],
 "data": [
  ["P54AR4-83v2 R84C, NEM conjugate (designed binder, not shown: small tags and cut ends, N-ethyl maleimide (NEM) on Cys 84) LPAPKNLVVSEVTEDSARLSWDDPWAFYESFLIQYQESEKVGEAIVLTVPGSERSYDLTGLKPGTEYTVSIYGVHNVYKDTNMCGLPLSAIFTT", "ratio", 1.04],
  ["P54AR4-83v2 V46C, NEM conjugate (designed binder, not shown: small tags and cut ends, N-ethyl maleimide (NEM) on Cys 46) LPAPKNLVVSEVTEDSARLSWDDPWAFYESFLIQYQESEKVGEAICLTVPGSERSYDLTGLKPGTEYTVSIYGVHNVYKDTNMRGLPLSAIFTT", "ratio", 1.01],
  ["P54AR4-83v2 P4C, NEM conjugate (designed binder, not shown: small tags and cut ends, N-ethyl maleimide (NEM) on Cys 4) LPACKNLVVSEVTEDSARLSWDDPWAFYESFLIQYQESEKVGEAIVLTVPGSERSYDLTGLKPGTEYTVSIYGVHNVYKDTNMRGLPLSAIFTT", "ratio", 0.02],
  ["P54AR4-83v2 E14C, NEM conjugate (designed binder, not shown: small tags and cut ends, N-ethyl maleimide (NEM) on Cys 14) LPAPKNLVVSEVTCDSARLSWDDPWAFYESFLIQYQESEKVGEAIVLTVPGSERSYDLTGLKPGTEYTVSIYGVHNVYKDTNMRGLPLSAIFTT", "ratio", 1.27]
]}
